- target or test system: HDAC activity (Mouse Liver Extract)
- assay explanation: Histone Deacetylase (HDAC) Inhibition Assay using Boc-Lys (Ac)-AMC Substrate
- test settings: mouse liver enzyme
- Source text: Histone Deacetylase (HDAC) Inhibition Assay using Boc-Lys (Ac)-AMC Substrate: Inhibition of HDAC has been implicated to modulate transcription and to induce apoptosis or differentiation in cancer cells. The fluorometric assay provides a fast and fluorescence based method that eliminates radioactivity, extractions or chromatography, as used in traditional assays. The assay based on two steps. […]
readout label: IC50 (nM)

| entry smiles | readout label | meas value |
| --- | --- | --- |
| O=C(CCCCCNC(=O)/C(=C\c1ccc(Br)s1)c1ccc(Br)cc1)NO | IC50 | 2950 |
| CC(=O)N(O)C(=O)CCCCCNC(=O)/C(=C\c1ccc(Cl)o1)c1ccc(F)cc1 | IC50 | 60 |
| Cc1ncsc1/C=C(\C(=O)NCCCCCC(=O)NO)c1ccc(Br)cc1 | IC50 | 1800 |
| COc1cc(/C=C(\C(=O)NCCCCCC(=O)NO)c2ccc([N+](=O)[O-])cc2)cc(OC)c1 | IC50 | 700 |
| CSc1ccc(/C=C(\C(=O)NCCCCCC(=O)NO)c2ccc(F)cc2)cc1 | IC50 | 61 |
